Biological target: turkey β3C-adrenoceptor (tβ3C) (Meleagris gallopavo)
Experiment: CRE-SPAP production, CHO tβ3C cells
Type: cell-based
Details: Log KD ICI118551, vs agonist BRL37344, CRE-SPAP, CHO tβ3C cells
quantityName: Kd (pM)
Give the number; pM is assumed, so skip it.

Entry under review: Cc1ccc(OCC(O)C(C)NC(C)C)c2c1CCC2 (stereo not shown) . Reported Kd? 490

---

Target: UniProt A0A803YLI8
Assay: CRE-SPAP production, CHO tβ3C cells
Assay type: cell-based
Settings: Log KD CGP20712A, vs agonist noradrenaline, CRE-SPAP, CHO tβ3C cells
quantityName: Kd (µM)
Numeric answer only, unit µM assumed.

Record request: Kd value, item Cn1cc(C(F)(F)F)nc1-c1ccc(OCC(O)CNCCOc2ccc(O)c(C(N)=O)c2)cc1 (stereo not shown) [CGP20712A] 5.25

---

Collected Emax values appear next to each entry.
Biological target: turkey β3C-adrenoceptor (tβ3C) (Meleagris gallopavo)
Experiment: CRE-SPAP production, CHO tβ3C cells
Type: cell-based
Conditions: read-out: % isop max
Express your answer in %, writing the number without its unit.

# example entries with known answers
compound	quantityName	readoutUnits	measured
NC[C@H](O)c1ccc(O)c(O)c1	Emax	%	102
CNC[C@H](O)c1ccc(O)c(O)c1	Emax	%	106
CC(C)(C)NCC(O)c1cc(Cl)c(N)c(Cl)c1 (stereo not shown)	Emax	%	97.8
CC(C)(C)NCC(O)c1ccc(O)c(CO)c1 (stereo not shown)	Emax	%	102
CC(C)NCC(O)c1ccc(N)c(C#N)c1 (stereo not shown)	Emax	%	103
CC(CCc1ccc(O)cc1)NCCc1ccc(O)c(O)c1 (stereo not shown)	Emax	%	101

We next turn to a different compound, shown below.
Which Emax value belongs to OCc1cc(C(O)CNCCCCCCOCCCCc2ccccc2)ccc1O (stereo not shown) ? 96

---

Target: turkey β3C-adrenoceptor (tβ3C) (Meleagris gallopavo, UniProt A0A803YLI8)
Sequence (A0A803YLI8 entry or part of it): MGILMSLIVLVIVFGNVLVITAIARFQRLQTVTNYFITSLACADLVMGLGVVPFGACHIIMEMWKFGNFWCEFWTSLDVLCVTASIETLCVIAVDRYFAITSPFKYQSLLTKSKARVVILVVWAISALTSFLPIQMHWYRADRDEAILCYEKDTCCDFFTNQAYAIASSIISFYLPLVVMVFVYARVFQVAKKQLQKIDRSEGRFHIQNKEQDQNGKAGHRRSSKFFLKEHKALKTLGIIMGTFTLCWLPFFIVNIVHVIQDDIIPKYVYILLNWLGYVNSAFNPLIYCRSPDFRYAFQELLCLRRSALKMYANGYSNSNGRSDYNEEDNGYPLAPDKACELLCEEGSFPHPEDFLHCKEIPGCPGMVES
Test: CRE-SPAP production, CHO tβ3C cells
Assay type: cell-based
Settings: Log KD ICI118551, vs agonist dobutamine, CRE-SPAP, CHO tβ3C cells
quantityName: Kd (nM)
Response body: numeric value in nM, unit text excluded.

I would be grateful if you could share the reported Kd for Cc1ccc(OCC(O)C(C)NC(C)C)c2c1CCC2 (stereo not shown) [ICI118551] . 1.15

---

Target: turkey β3C-adrenoceptor (tβ3C) (Meleagris gallopavo, UniProt A0A803YLI8)
Assay: CRE-SPAP production, CHO tβ3C cells
Assay type: cell-based
Conditions: Log KD ICI118551, vs agonist formoterol, CRE-SPAP, CHO tβ3C cells
quantityName: Kd (nM)
Give the value in nM but do not write nM after it.

Hello, I am looking for reported Kd with turkey β3C-adrenoceptor (tβ3C) (Meleagris gallopavo, UniProt A0A803YLI8) for Cc1ccc(OCC(O)C(C)NC(C)C)c2c1CCC2 (stereo not shown) [ICI118551] . Could you help? 0.513

---

Molecular target: UniProtKB A0A803YLI8
Experiment: CRE-SPAP production, CHO tβ3C cells
Type: cell-based
Details: Log KD CGP20712A, vs agonist clenbuterol, CRE-SPAP, CHO tβ3C cells
quantityName: pKd
Quick note: pKd means taking -log10 of the concentration in moles per liter.

What does the record list as pKd for Cn1cc(C(F)(F)F)nc1-c1ccc(OCC(O)CNCCOc2ccc(O)c(C(N)=O)c2)cc1 (stereo not shown) [CGP20712A] ? 5.75

---

Target: turkey β3C-adrenoceptor (tβ3C) (Meleagris gallopavo, UniProt A0A803YLI8)
Test: CRE-SPAP production, CHO tβ3C cells
Type: cell-based
Conditions: Log KD CGP20712A, vs agonist salmeterol, CRE-SPAP, CHO tβ3C cells
quantityName: pKd
Keep it numeric: pKd is minus log10 of the concentration in mol/L.

# get_value(readout='pKd', item= Cn1cc(C(F)(F)F)nc1-c1ccc(OCC(O)CNCCOc2ccc(O)c(C(N)=O)c2)cc1 (stereo not shown) [CGP20712A] ) 5.20

---

Target: turkey β4C-adrenoceptor (tβ4C) (Meleagris gallopavo, UniProt P43141)
Construct: expressed in transfected cells
Sequence (P43141 whole entry): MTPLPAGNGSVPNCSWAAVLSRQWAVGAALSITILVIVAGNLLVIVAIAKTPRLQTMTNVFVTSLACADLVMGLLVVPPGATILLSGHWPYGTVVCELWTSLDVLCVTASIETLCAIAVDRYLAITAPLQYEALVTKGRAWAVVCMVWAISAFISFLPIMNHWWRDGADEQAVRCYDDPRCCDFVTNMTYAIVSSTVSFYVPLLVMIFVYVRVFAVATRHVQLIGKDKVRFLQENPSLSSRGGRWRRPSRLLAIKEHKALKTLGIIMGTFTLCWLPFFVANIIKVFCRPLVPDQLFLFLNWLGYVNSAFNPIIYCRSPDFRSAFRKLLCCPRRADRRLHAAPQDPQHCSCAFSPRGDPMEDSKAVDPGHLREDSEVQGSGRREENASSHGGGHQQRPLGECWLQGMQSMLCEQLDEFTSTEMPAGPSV
Experiment: cell-based
Type: binding
Settings: competition with 3H-CGP12177, whole cells, CHO tβ4C; given as log KD; mean ± s.e.m.; read-out: Log KD (converted)
Measured Kd determines class: low class (below 7 nM), middle class (7 nM to below 700 nM), high class (700 nM or more)

Record excerpt, results attached:
molecule	experimentalSystem	cat
O=C(O)Cc1ccc(OCCNC[C@H](O)c2ccccc2)cc1	turkey β4C-adrenoceptor (tβ4C) (Meleagris gallopavo, UniProt P43141)	high class
CC(C)NCC(O)COc1cccc2[nH]ccc12 (stereo not shown)	turkey β4C-adrenoceptor (tβ4C) (Meleagris gallopavo, UniProt P43141)	low class
CC(C)(C)NCC(O)COc1cccc2c1CC(O)C(O)C2 (stereo not shown)	turkey β4C-adrenoceptor (tβ4C) (Meleagris gallopavo, UniProt P43141)	middle class
CC(C)NCC(O)COc1ccc(CCOCC2CC2)cc1 (stereo not shown)	turkey β4C-adrenoceptor (tβ4C) (Meleagris gallopavo, UniProt P43141)	middle class
CNC[C@H](O)c1ccc(O)c(O)c1	turkey β4C-adrenoceptor (tβ4C) (Meleagris gallopavo, UniProt P43141)	high class

Band of CC(C)NCC(O)COc1ccc(CC(N)=O)cc1 (stereo not shown) ? high class

Class (by measured Kd) for CC(C)(C)NCC(O)c1cc(O)cc(O)c1 (stereo not shown) high class

Category of CCCC(=O)Nc1ccc(OCC(O)CNC(C)C)c(C(C)=O)c1 (stereo not shown) : high class

For CC(C)(Cc1ccccc1)NCC(O)c1ccc(O)c(NS(C)(=O)=O)c1 (stereo not shown) , which Kd bin applies? middle class

---

Parameter: Log KD. Scope: all listed entries.
Molecular target: turkey β3C-adrenoceptor (tβ3C) (Meleagris gallopavo)
Assay: 3H-CGP12177 whole cell binding, CHO tβ3C cells
Details: competition with 3H-CGP12177, whole cells, CHO tβ3C; given as log KD; mean ± s.e.m.
Answer as a number with no unit attached.

Record excerpt, results attached:
molecule	Log KD
Br.COC(=O)COc1ccc(CC(C)NC[C@H](O)c2cccc(Cl)c2)cc1 (stereo partly drawn) [BRL35135A]	−7.42
COCCNC(=O)COc1ccc(OCCNC[C@H](O)COc2ccccc2)cc1	−6.59
CCc1ccccc1OC[C@@H](O)CN[C@H]1CCCc2ccccc21.O=C(O)C(=O)O [SR59230A]	−7.96
C[C@H](Cc1ccc(OCC(=O)O)cc1)NC[C@H](O)c1cccc(Cl)c1	−6.28
CCCCCCNC(=O)Nc1ccc(S(=O)(=O)Nc2ccc(CCNC[C@H](O)COc3ccc(O)cc3)cc2)cc1	−6.56

So what does the record say about Log KD for CC(CCc1ccccc1)NCC(O)c1ccc(O)c(C(N)=O)c1 (stereo not drawn) ? −7.42

Using the record for CC(C)OC(=O)c1cc2c(OCC(O)CNC(C)(C)C)cccc2[nH]1 (stereo not drawn) , report its Log KD. −10.17

Sample O=C(O)COc1ccc(OCCNC[C@H](O)COc2ccccc2)cc1 — what was its Log KD? −5.31

---

Target: turkey β3C-adrenoceptor (tβ3C) (Meleagris gallopavo)
Assay: CRE-SPAP production, CHO tβ3C cells
Format: cell-based
Conditions: Log KD CGP20712A, vs agonist adrenaline, CRE-SPAP, CHO tβ3C cells
quantityName: Kd (µM)
Numbers only; they are read as µM.

I have this compound here, Cn1cc(C(F)(F)F)nc1-c1ccc(OCC(O)CNCCOc2ccc(O)c(C(N)=O)c2)cc1 (stereo not shown) [CGP20712A] , and I need its recorded Kd. 4.57

---

Target: turkey β4C-adrenoceptor (tβ4C) (Meleagris gallopavo, UniProt P43141)
Construct: expressed in transfected cells
Assay: cell-based
Assay type: binding
Settings: competition with 3H-CGP12177, whole cells, CHO tβ4C; given as log KD; mean ± s.e.m.; read-out: Log KD (converted)
// Kd lookup, one value per entry
Answer by giving the amount and then stating its unit.

Recorded results for 9 molecules are shown here.
molecule	Kd
COc1ccccc1OCCNCC(O)COc1cccc2[nH]c3ccccc3c12 (stereo not shown) [Carvedilol]	0.123 nM
COc1ccc(OC)c(C(O)C(C)NC(C)(C)C)c1 (stereo not shown) [Butoxamine]	12600 nM
CC(C)(C)NCC(O)c1ccccc1Cl (stereo not shown) [Tulobuterol]	3470 nM
CC(C)(C)NCC(O)c1ccc(O)c(CO)c1 (stereo not shown) [Salbutamol]	4370 nM
CC(C)NCC(O)c1cc(O)cc(O)c1 (stereo not shown) [Metaproterenol]	7410 nM
CC(CCc1ccc(O)cc1)NCCc1ccc(O)c(O)c1 (stereo not shown) [Dobutamine]	1000 nM
CC(CCc1ccc(O)cc1)NCC(O)c1ccc(O)cc1 (stereo not shown) [Ractopamine]	269 nM
COc1ccc(CCNC[C@H](O)c2ccc(O)cc2)cc1OC [Denopamine]	1120 nM
CC(C)NCC(O)COc1ccc(COCCOC(C)C)cc1 (stereo not shown) [Bisoprolol]	550 nM

Okay, next one:
Data request, read-out Kd, for CC(C)(C)NC[C@H](O)COc1nsnc1N1CCOCC1 [Timolol] 2 nM
